- Method Notes: in vitro
- Set-up: dose or concentration left out as unconfirmed
- Measurement Setup: PAMPA, pH 7.4, PAMPA Pe
Starred links: 1 amine or outer side, 2 acyl side, 3 side chain; linkers in the order of their positions; H or OH if unused. Positions of bridges follow the written chain, without caps; N, C: chain ends. Non-standard residues stand in square brackets, D forms with d. Residues, ends and D or L forms follow the SMILES beside them. X1 = O=C([C@]1(CC=[*:3])CCCN1[*:1])[*:2]; S5 = C=CCCC[C@](C)(N)C(=O)O
Property: Papp at 5 h (×10⁻⁶ cm/s)
Answers are plain numbers, in ×10⁻⁶ cm/s.

Entry CC[C@H](C)[C@@H]1NC(=O)[C@]2(CC=CCCC[C@@](C)(C(=O)N[C@@H](Cc3ccc(O)cc3)C(=O)N[C@@H](CC(C)C)C(=O)N[C@@H](CC(C)C)C(=O)N[C@@H](CC(=O)O)C(=O)NC)NC(=O)[C@H](CC(C)C)NC1=O)CCCN2C(C)=O [PLL5-4, Ac-PL3-Ile-Leu-S5-Tyr-Leu-Leu-Asp-NHMe] (Ac-[X1]IL[S5]YLLD-NHMe; staple 1-4) ; Papp at 5 h = 0.3

----------
Non-standard residues stand in square brackets, D forms with d. Residues, ends and D or L forms follow the SMILES beside them. αAllylPro = C=CC[C@@]1(C(=O)O)CCCN1; S5 = C=CCCC[C@](C)(N)C(=O)O
Assign PAMPA Pe (text) to each entry below.
Give bare numbers, in cm/s.

- Molecule: "C=CCCC[C@](C)(NC(=O)[C@H](CC(C)C)NC(=O)[C@H](CC(C)C)NC(=O)[C@]1(CC=C)CCCN1C(C)=O)C(=O)N[C@@H](Cc1ccc(O)cc1)C(=O)N[C@@H](CC(C)C)C(=O)N[C@@H](CC(C)C)C(=O)N[C@@H](CC(=O)O)C(=O)N[C@@H](CC(=O)O)C(=O)NC [PLL5-2 variant 5] (Ac-[αAllylPro]LL[S5]YLLDD-NHMe)"
  Unit Label: "cm/s"
  Reading: "1.7e-06"

Now take the following molecule into account.
Entry CNC(=O)[C@H](CC(=O)O)NC(=O)[C@H](CC(=O)O)NC(=O)[C@H](CC(C)C)NC(=O)[C@H](CC(C)C)NC(=O)[C@H](Cc1ccc(O)cc1)NC(=O)[C@]1(C)CCCC=CC[C@]2(CCCN2C(C)=O)C(=O)N[C@@H]([C@@H](C)O)C(=O)N[C@@H](CC(C)C)C(=O)N1 (single isomer, unassigned) ; PAMPA Pe (text) = 2.1e-06

----------
- Method Notes: CHI Log D measurement (chromatographic hydrophobicity index)
- Measurement Setup: reverse-phase HPLC, Phenomenex Gemini C-18 column, pH 7.4
Starred links: 1 amine or outer side, 2 acyl side, 3 side chain; linkers in the order of their positions; H or OH if unused. Positions of bridges follow the written chain, without caps; N, C: chain ends. Non-standard residues stand in square brackets, D forms with d. Residues, ends and D or L forms follow the SMILES beside them. X1 = O=C([C@]1(CC=[*:3])CCCN1[*:1])[*:2]; S5 = C=CCCC[C@](C)(N)C(=O)O
Property: chromatographic logD
One number for each entry.

Entry CNC(=O)[C@@H](NC(=O)[C@H](CC(C)C)NC(=O)[C@H](CC(C)C)NC(=O)[C@H](Cc1ccc(O)cc1)NC(=O)[C@]1(C)CCCC=CC[C@]2(CCCN2C(C)=O)C(=O)N[C@@H](CC(C)C)C(=O)N[C@@H](CC(C)C)C(=O)N1)[C@@H](C)O [PLL5-10, Ac-PL3-Leu-Leu-S5-Tyr-Leu-Leu-Thr-NHMe] (Ac-[X1]LL[S5]YLLT-NHMe; staple 1-4) ; chromatographic logD = 3.8
